Entry source: patent US20040142952A1

Hi there, I'd appreciate the recorded melting point for every entry that follows.

Recorded results for 3 compounds are shown here.
[
  {
    "Structure": "CCCCc1nc2c(cnn2CCC)c2nc(-c3ccc(Cl)cc3)nn12",
    "melting point": "131.5 to 132 °C"
  },
  {
    "Structure": "CCCCc1nc2nn(CCO)cc2c2nc(-c3ccc(OC)cc3)nn12",
    "melting point": "178 to 179 °C"
  },
  {
    "Structure": "CCCCc1nc2nn(CC)cc2c2nc(-c3ccccc3)nn12",
    "melting point": "122.5 to 123 °C"
  }
]

For every listed record, write down its melting point.
1. CCCCc1nc2cccc(F)c2c2nc(-c3ccccc3)nn12
2. COC(=O)CCCc1nc2ccccc2c2nc(-c3ccccc3)nn12
3. CCCCc1nc2nn(CC(=O)OCC)cc2c2nc(-c3ccc(F)cc3)nn12
4. CCCCc1nc2nncc-2c2nc(-c3cc(OC)c(OC)c(OC)c3)[nH]n12
5. COC(=O)CCCc1nc2nncc-2c2nc(-c3ccc(OC)cc3)[nH]n12

Response given:
123 to 124 °C
118.5 to 119.5 °C
164 to 165 °C
259 to 262 °C
187.5 to 188.5 °C

---

Consider the following compounds; for each one, report its melting point.

Reference set, count: 5
[
  {
    "Structure": "CCCCc1nc2nncc-2c2nc(-c3cccs3)[nH]n12",
    "melting point": "214 to 216 °C"
  },
  {
    "Structure": "CCCCc1nc2ccccc2c2nc(-c3cccnc3)nn12",
    "melting point": "140 to 141.5 °C"
  },
  {
    "Structure": "CCCCc1nc2nncc-2c2nc(-c3cccnc3)[nH]n12",
    "melting point": "217 to 219 °C"
  },
  {
    "Structure": "O=C(O)CCCc1nc2nncc-2c2nc(-c3ccc(Cl)cc3)[nH]n12",
    "melting point": "253.5 to 255.5 °C"
  },
  {
    "Structure": "CCCCc1nc2ccccc2c2nc(-c3ccccc3OC)nn12",
    "melting point": "106.5 to 107.5 °C"
  }
]

I would be grateful if you could provide melting point for each of the following entries.
1. CCCCCc1nc2ccccc2c2nc(-c3ccc(OCC)cc3)nn12
2. CCCCc1nc2nn(CC)cc2c2nc(-c3ccc(F)cc3)nn12
3. CCc1nc2ccccc2c2nc(-c3ccc(Cl)cc3)nn12
4. CCCCc1nc2c(cnn2CCC)c2nc(-c3ccccc3)nn12
5. CCCCc1nc2ccc([N+](=O)[O-])cc2c2nc(-c3ccccc3)nn12
6. CCCCc1nc2c(cnn2CC)c2nc(-c3ccccc3)nn12

Response given:
1. 116 to 117 °C
2. 146 to 147 °C
3. 197 to 198 °C
4. 100.5 to 101.5 °C
5. 205.5 to 206 °C
6. 146 to 147 °C
